# experiment.notes: Phase I single-ascending dose (SAD) pharmacokinetics incl. food effect, plasma concentration of the Compound
# Type: in vivo, human
# setup.conditions: human, plasma, oral, across all cohorts in the SAD phase; read-out: Arithmetic mean T1/2 in fasted subjects (converted)
Structures can show the parent of a compound that is named as a salt.
quantity: half-life

Lookup: I have this molecule here, O=C(O)c1cccc(CN2CN(C3CCCCC3)C3(CCN(CCCC(=O)c4ccccc4)CC3)C2=O)c1 [the Maleate Salt] , and I need its recorded half-life.
Found: ~4 h

* * *

# experiment.notes: Phase I single-ascending dose (SAD) pharmacokinetics incl. food effect, plasma concentration of the Compound
# Format: in vivo, human
# setup.conditions: human, plasma, po, 25 mg, single PO dose 25 mg, fed (high-fat breakfast), healthy subjects
Structures can show the parent of a compound that is named as a salt.
quantity: AUC(0-inf) (ng·h/mL)
Write the number in ng·h/mL without appending the unit.

Lookup: I have this molecule here, O=C(O)c1cccc(CN2CN(C3CCCCC3)C3(CCN(CCCC(=O)c4ccccc4)CC3)C2=O)c1 [the Maleate Salt] , and I need its recorded AUC(0-inf).
Found: 17.2
